- System: SEAP-APP(Sw)695 fusion protein
- TEST: SEAP bioassay (cell-based, luminescence readout)
- MEASUREMENT_CONTEXT: at 12.5 µM; transiently transfected HEK293 cells
The compounds listed here are annotated with their % reduction of secreted SEAP activity.

# example entries with known answers
COc1cccc(NC(=O)Nc2nnc(C(C)Oc3ccccc3)s2)c1 (stereo not drawn); 0 (12.5 µM) %
Cc1cccc(NC(=O)NCC2CCN(c3ccc(S(=O)(=O)N4CCOCC4)cc3)CC2)c1; 0 (12.5 µM) %
COCCNC(=O)c1cc(NC(=O)Nc2cccc(C)c2)ccc1N(C)C; 0 (12.5 µM) %

The value of % reduction of secreted SEAP activity measured for the compound Cc1ccc(NC(=O)Nc2ccc(N(C)C)c(C(=O)NCCCN3CCOCC3)c2)cc1C turned out to be 19 (12.5 µM) %

The value of % reduction of secreted SEAP activity measured for the compound CSc1nnc(CCNC(=O)Nc2ccc(Cl)c(C(F)(F)F)c2)n1C(C)C turned out to be 0 (12.5 µM) %

The value of % reduction of secreted SEAP activity measured for the compound CN(C)c1nc(OCCNC(=O)Nc2ccccc2)nc(N2CCCCC2)n1 turned out to be 0 (12.5 µM) %

====

- Test system: Aβ1-40 secretion
- TEST: Aβ1-40 (Sw) bioassay (cell-based, ELISA)
- MEASUREMENT_CONTEXT: Homo sapiens; concentration that reduces Aβ1-40 secretion to 50 %; supernatant of Swedish APP695 transgenic HEK293 cells
ENDPOINT_LABEL: IC50 (µM)

CCOCCCNC(=O)c1cc(NC(=O)Nc2cccc(Cl)c2)ccc1N(C)C; 2.6
COCCCNC(=O)c1cc(NC(=O)Nc2cccc(Br)c2)ccc1N(C)C; 3.8
CN(C)c1ccc(NC(=O)Nc2cc(C(F)(F)F)cc(C(F)(F)F)c2)cc1C(=O)NCCCN1CCOCC1; 3
CCCNC(=O)c1cc(NC(=O)Nc2ccc(CC)cc2)ccc1N(C)C; 5.2

====

- Tested on: Aβ1-40 secretion
- TEST: Aβ1-40 (Sw) bioassay (cell-based, ELISA)
- MEASUREMENT_CONTEXT: Homo sapiens; concentration that reduces Aβ1-40 secretion to 50 %; supernatant of Swedish APP695 transgenic HEK293 cells
pIC50: −log10 of the molar value.
ENDPOINT_LABEL: pIC50

COCCCNC(=O)c1cc(NC(=O)Nc2ccc(Cl)c(Cl)c2)ccc1N(C)C [Compound A9]; 5.23
COCCNC(=O)c1cc(NC(=O)Nc2cccc(C)c2)ccc1N(C)C [Compound A7]; 4.89
CCCNC(=O)c1cc(NC(=O)Nc2cccc(OC)c2)ccc1N(C)C [Compound A5]; 4.84

====

- Tested on: Aβ1-40 secretion
- TEST: Aβ1-40 (Sw) bioassay (cell-based, ELISA)
- MEASUREMENT_CONTEXT: Homo sapiens; concentration that reduces Aβ1-40 secretion to 50 %; supernatant of Swedish APP695 transgenic HEK293 cells
ENDPOINT_LABEL: IC50 (µM)

# example entries with known answers
Cc1cc(C)cc(NC(=O)NCc2nnc(SCc3ccccc3)n2C)c1; 18
CN(C)c1ccc(NC(=O)Nc2cc(C(F)(F)F)cc(C(F)(F)F)c2)cc1C(=O)NCc1ccc(F)cc1; 4.2
COCCCNC(=O)c1cc(NC(=O)Nc2cc(C(F)(F)F)cc(C(F)(F)F)c2)ccc1N(C)C; 3.2
Cc1cccc(NC(=O)NCC2CCN(c3ccc(S(=O)(=O)N4CCOCC4)cc3)CC2)c1; 22

(P) Cc1ccc(NC(=O)Nc2ccc(N(C)C)c(C(=O)NCCCN3CCOCC3)c2)cc1C
(Q) Cc1cccc(NC(=O)Nc2ccc(N(C)C)c(C(=O)NCCc3ccccc3)c2)c1
(R) CCSc1nsc(NC(=O)Nc2cccc(C(C)=O)c2)n1
(S) COc1cccc(NC(=O)Nc2nnc(C(C)Oc3ccccc3)s2)c1 (centres unmarked)
Exercise: Order the items by recorded IC50; the first position goes to the largest value. Returns: the labels listed in the requested order.
Key: P, S, Q, R
(P: 23 µM, S: 13 µM, Q: 5.6 µM, R: 1.6 µM)

Origin of values: patent EP1734039A1
